Consider the following compounds; for each one, report its pest or weed control at 125 g/ha.
# Test system: Kochia (Kochia scoparia)
# EXPERIMENT: Test A postemergence
# Type: in vivo
# CONDITION DESCRIPTION: Bassia scoparia, post-emergence, 240 h, 125 g ai/ha, Postemergence, visual rating about 10 d after treatment; read-out: Kochia plant response rating (0 to 100 scale)
Numbers only, in %.

As a guide, the following entries are already answered.
COMPOUND	UNIT ANNOTATION	pest or weed control at 125 g/ha
Cc1cccc([C@H]2CN(C)C(=O)[C@@H]2C(=O)Nc2cccnc2F)c1 [Compound 1345]	%	0
O=C1NC[C@H](c2cc(Br)cc(Br)c2)[C@H]1C(=O)Nc1cccc(F)c1F [Compound 1366]	%	0
CN1C[C@H](c2csc3c2CCC(F)(F)C3)[C@@H](C(=O)Nc2cccc(F)c2F)C1=O (racemic) [Compound 1369]	%	20

State the recorded pest or weed control at 125 g/ha for every item in the following list.
1. Cc1nc([C@H]2CN(C)C(=O)[C@@H]2C(=O)Nc2ccccc2F)cs1 [Compound 1280]
2. CN1C[C@H](c2ccc3c(c2)OC(F)(F)O3)[C@@H](C(=O)Nc2ccc(F)nc2F)C1=O [Compound 1350]
3. CN1C[C@H](c2ccc(C(F)(F)F)nc2)[C@@H](C(=O)Nc2ccc(F)c(F)c2F)C1=O [Compound 1373]

Result string:
0
70
80

====

Please provide measured pest or weed control at 62.5 g/ha for the entries that follow.
# Test system: barnyardgrass (Echinochloa crus-galli)
# EXPERIMENT: Test G Post-Emergence Protocol
# Format: in vivo
# CONDITION DESCRIPTION: Echinochloa crus-galli, post-emergence, 312 h, 62.5 g ai/ha, evaluated after 13 days, read-out: Barnyardgrass damage rating (100=total damage to plant; 0=no damage to plant)
Hi, when you answer, please include the unit after the number. Thanks!

Could you tell me pest or weed control at 62.5 g/ha for each of these compounds? They are listed below.
1. CN1C[C@H](c2ccc(C(F)(F)F)cc2)[C@@H](C(=O)Nc2ccc(F)cc2S(C)(=O)=O)C1=O (racemic)
2. CN1C[C@@H](c2ccc(C(F)(F)F)cc2)[C@H](C(=O)Nc2cc(C(F)(F)F)no2)C1=O (racemic)

Result string:
["40%", "0%"]

The following compounds each have a reported value; give each one's pest or weed control at 62.5 g/ha.
1. CSc1nc(NC(=O)[C@@H]2C(=O)N(C)C[C@H]2c2ccc(C(F)(F)F)cc2)n[nH]1 (racemic)
2. CSc1nccc(NC(=O)[C@@H]2C(=O)N(C)C[C@H]2c2ccc(C(F)(F)F)cc2)n1 (racemic)
3. Cc1nccc(NC(=O)[C@@H]2C(=O)N(C)C[C@H]2c2ccc(C(F)(F)F)cc2)n1 (racemic)
4. CN1C[C@@H](c2ccc(C(F)(F)F)nc2)[C@H](C(=O)Nc2ccccc2S(C)(=O)=O)C1=O (racemic)

Result string:
0%
0%
0%
0%

Below is a list of compounds. For each, state its recorded pest or weed control at 62.5 g/ha.
1. C=CCc1c(Cl)cccc1NC(=O)[C@H]1C(=O)N(C)C[C@@H]1c1ccc(C(F)(F)F)cc1 (racemic)
2. CN1C[C@@H](c2ccc(C(F)(F)F)cc2)[C@H](C(=O)Nc2ccon2)C1=O (racemic)
3. CN1C[C@@H](c2ccc(C(F)(F)F)cc2)[C@H](C(=O)Nc2ccccc2C#N)C1=O (racemic)
4. COc1c(Cl)ccc([C@H]2CNC(=O)[C@@H]2C(=O)Nc2cccc(F)c2F)c1F (racemic)
5. CN1C[C@@H](c2cncc(Cl)c2)[C@H](C(=O)Nc2cccc(F)c2F)C1=O (racemic)
6. Cc1ccc(NC(=O)[C@H]2C(=O)N(C)C[C@@H]2c2ccc(C(F)(F)F)cc2)c(C)c1 (racemic)

Result string:
0%
0%
70%
30%
30%
0%

Each compound below has a reported value. Please supply its pest or weed control at 62.5 g/ha.
1. CCc1nnc(NC(=O)[C@@H]2C(=O)N(C)C[C@H]2c2ccc(C(F)(F)F)cc2)s1 (racemic)
2. CN1C[C@@H](c2ccc(C(F)(F)F)cc2)[C@H](C(=O)Nc2ccc(F)nc2)C1=O (racemic)

Result string:
1: 10%; 2: 0%

Hi! Can you tell me pest or weed control at 62.5 g/ha for each of these compounds?
1. CN1C[C@@H](c2ccc(C(F)(F)F)nc2)[C@H](C(=O)Nc2cccc(F)n2)C1=O (racemic)
2. CN1C[C@@H](c2ccc(C(F)(F)F)cc2)[C@H](C(=O)Nc2ncc(C(F)(F)F)s2)C1=O (racemic)

Result string:
["20%", "0%"]

For each of the compounds below, state pest or weed control at 62.5 g/ha.
1. CN1C[C@@H](c2ccc(C(F)(F)F)cc2)[C@H](C(=O)Nc2ccc(Cl)nc2)C1=O (racemic)
2. CN1C[C@@H](c2ccc(C(F)(F)F)cc2)[C@H](C(=O)Nc2cc(Cl)nc(Cl)c2)C1=O (racemic)
3. CN1C[C@@H](c2ccc(C(F)(F)F)cc2)[C@H](C(=O)Nc2cccnc2Cl)C1=O (racemic)
4. CC(C)c1cc(NC(=O)[C@@H]2C(=O)N(C)C[C@H]2c2ccc(C(F)(F)F)cc2)[nH]n1 (racemic)
5. Cc1nccc(NC(=O)[C@@H]2C(=O)N(C)C[C@H]2c2ccc(C(F)(F)F)cc2)c1C (racemic)
6. CN1C[C@H](c2ccc(C(F)(F)F)cc2)[C@@H](C(=O)Nc2ccc(F)c(F)c2)C1=O (racemic)
7. CN1C[C@H](c2ccc(C(F)(F)F)cc2)[C@@H](C(=O)Nc2ncc(F)cc2F)C1=O (racemic)

Result string:
1. 0%
2. 0%
3. 50%
4. 0%
5. 0%
6. 50%
7. 0%

Query string: GET /values?readout=pest or weed control at 62.5 g/ha&item= CN1C[C@@H](c2ccc(C(F)(F)F)cc2)[C@H](C(=O)Nc2ncc(Cl)s2)C1=O (racemic)
Result string: 10%

====

# Tested on: Galium (catchweed bedstraw, Galium aparine)
# EXPERIMENT: Test A postemergence
# Format: in vivo
# CONDITION DESCRIPTION: Postemergence, 500 g ai/ha; 0 to 100 scale where 0 is no effect and 100 is complete control
EXPERIMENTAL READOUT: Plant response rating, Galium
One number for each entry.

MOLECULE	Plant response rating, Galium
O=C1NCC(c2ccsc2Br)C1C(=O)Nc1cccc(F)c1F (centres unmarked)	30
O=C1NCC(c2ccc(C(F)(F)F)cc2F)C1C(=O)Nc1cccc(F)c1F (centres unmarked)	60
O=C1NCC(c2ccnc(C(F)(F)F)c2)C1C(=O)Nc1ccccc1F (racemic)	40

Quick request: Plant response rating, Galium for each listed item, please.
1. CN1CC(c2cccc(OC(F)F)c2)C(C(=O)Nc2ccc(F)cc2F)C1=O (centres unmarked)
2. CN1CC(c2ccc(Br)cc2)C(C(=O)Nc2ccccc2F)C1=O (centres unmarked)

Result string:
60
70

====

# Tested on: pigweed (Amaranthus retroflexus)
# EXPERIMENT: Test A postemergence
# Assay type: in vivo
# CONDITION DESCRIPTION: Amaranthus retroflexus, post-emergence, 240 h, 125 g ai/ha, Postemergence, visual rating about 10 d after treatment; read-out: Pigweed plant response rating (0 to 100 scale)
# Description: […]
Assignment: determine reported pest or weed control at 125 g/ha for the given compounds.
Numbers only, in %.

Example results:
COMPOUND	EXPERIMENTAL RESULT
CSc1ccccc1NC(=O)[C@H]1C(=O)NC[C@@H]1c1cc(C)cc(F)c1	0
COc1cc([C@H]2CN(C)C(=O)[C@@H]2C(=O)Nc2ccccc2S(C)(=O)=O)ccc1F	0
CN1C[C@H](c2csc3c2CCC(F)(F)C3)[C@@H](C(=O)Nc2cccc(F)c2F)C1=O (racemic)	20

Quick request: pest or weed control at 125 g/ha for each listed item, please.
1. CN1C[C@H](c2ccc(C(F)(F)F)cc2)[C@@H](C(=O)Nc2ccccc2-n2cccn2)C1=O
2. CN1C[C@H](c2ccc3c(c2)OC(F)(F)O3)[C@@H](C(=O)Nc2ccc(F)nc2F)C1=O
3. Cc1cc(F)cc([C@H]2CNC(=O)[C@@H]2C(=O)Nc2cccc(F)c2F)c1
4. O=C1NCC(c2ccccc2)C1C(=O)Nc1ccc(C(F)(F)F)cc1 (stereo not shown)
5. O=C1NCC(c2ccccc2)C1C(=O)Nc1cc(F)ccc1F (stereo not shown)

Result string:
0
70
0
0
0

Look up pest or weed control at 125 g/ha for the entries below, preserving their order.
1. CSc1ccccc1NC(=O)[C@H]1C(=O)N(C)C[C@@H]1c1ccc(F)c(C)c1
2. Cc1nc([C@H]2CN(C)C(=O)[C@@H]2C(=O)Nc2ccccc2F)cs1

Result string:
1. 0
2. 0
